Ref: paper PMC10764114

# System: U87-malignant glioma (ATCC-HTB-14)
# procedure-text: MTT assay, cytotoxicity against U87-malignant glioma cells
# Type: cell-based, human
# cond: Homo sapiens, Glioma cell, read-out: % cell viability U87
Hi! Just check whether viability at 80 µM is below 60%. Below gives yes, equal or above gives no.

Answered cases to consult:
INSERT INTO measurements (molecule, target_under_test, assigned_label) VALUES
  ('CC(C)Cc1ccc(C(C)C(=O)NN=Cc2ccc(OCC(=O)NN=Cc3cc(Br)c(O)c(Br)c3)cc2)cc1 (stereo not drawn)', 'U87-malignant glioma (ATCC-HTB-14)', 'yes'),
  ('CC(C)Cc1ccc(C(C)C(=O)NN=Cc2ccc(OCC(=O)NN=Cc3ccc(O)cc3O)cc2)cc1 (stereo not drawn)', 'U87-malignant glioma (ATCC-HTB-14)', 'yes'),
  ('COc1ccc(C=NNC(=O)COc2ccc(C=NNC(=O)C(C)c3ccc(CC(C)C)cc3)cc2)cc1OC (stereo not drawn)', 'U87-malignant glioma (ATCC-HTB-14)', 'no'),
  ('CC(C)Cc1ccc(C(C)C(=O)NN=Cc2ccc(OCC(=O)NN=Cc3ccccc3O)cc2)cc1 (stereo not drawn)', 'U87-malignant glioma (ATCC-HTB-14)', 'no');

In the following, a different molecule is considered.
In: Is 60% strictly greater than the molecule's reported viability at 80 µM? molecule: COc1ccc(C=NNC(=O)COc2ccc(C=NNC(=O)C(C)c3ccc(CC(C)C)cc3)cc2)c(O)c1 (stereo not drawn)
Out: yes
